Provenance of the data: ChEMBL document CHEMBL4613250

Experiment: Mean residence time in C57BL/6 mouse at 1 mg/kg, iv after 5 mins to 7 hrs by HPLC-MS/MS analysis
Format: ADME, organism-based
Conditions: C57BL/6, mouse, in vivo, read-out: MRT
Recorded Metric: MRT
Please give the number followed by its unit.

{"Smiles Text": "CO[C@H]1CCN(Cc2c(C3CC3)cc(C)c3[nH]ccc23)[C@H](c2ccc(C(=O)O)cc2)C1", "MRT": "2.4 h"}

Now turn to the next compound.
Look at this compound and give its reported MRT. COc1cc(C)c2[nH]ccc2c1CN1CC[C@H](OC)C[C@H]1c1ccc(C(=O)O)cc1
1.4 h

* * *

Assay: Tmax in Wistar Han rat at 30 mg/kg, po after 0.5 to 24 hrs by HPLC-MS/MS analysis
Type: ADME, organism-based
Settings: in vivo
Recorded Metric: Tmax (h)
Report the value in h with no unit label.

So what does the record say about Tmax for CCO[C@H]1CCN(Cc2c(OC)cc(C)c3[nH]ccc23)[C@H](c2ccc(C(=O)O)cc2)C1.Cl ?
2

* * *

Assay: Cmax in C57BL/6 mouse at 10 mg/kg, po after 5 mins to 7 hrs by HPLC-MS/MS analysis
Assay type: ADME, organism-based
Design: dose 10 mg/kg, route oral
Settings: in vivo
Recorded Metric: Cmax

What value of Cmax has been reported for the following molecule? Cc1cc(C)c2[nH]ccc2c1CN1CCCCC1c1ccc(C(=O)O)cc1 (stereo unspecified)
5.41 µM

* * *

Assay: AUC (0 to last) in brown Norway rat plasma at 10 mg/kg, po administered as single dose measured after 0.25 to 24 hrs by HPLC-MS/MS analysis
Type: ADME, organism-based
Design: dose 10 mg/kg, time 0 - last, route oral
Recorded Metric: AUC(0-t) (µM·h)
Answer format: numeric, µM·h implied, no suffix.

State the recorded AUC(0-t) for this entry: CCO[C@H]1CCN(Cc2c(OC)cc(C)c3[nH]ccc23)[C@H](c2ccc(C(=O)O)cc2)C1
28.6

* * *

Below, each entry is listed with its recorded bioavailability.
Experiment: Oral bioavailability in C57BL/6 mouse at 10 mg/kg after 5 mins to 7 hrs by HPLC-MS/MS analysis
Format: ADME, organism-based
Settings: C57BL/6, mouse, in vivo
// return numeric value only (unit: %, not printed)

Here's what some known entries look like.
{"Molecule": "Cc1cc(C)c2[nH]ccc2c1CN1CCCCC1c1ccc(C(=O)O)cc1 (centres undefined)", "bioavailability [%]": 47}
{"Molecule": "CO[C@H]1CCN(Cc2c(C)cc(C)c3[nH]ccc23)[C@H](c2ccc(C(=O)O)cc2)C1", "bioavailability [%]": 41}
{"Molecule": "CCO[C@H]1CCN(Cc2c(OC)cc(C)c3[nH]ccc23)[C@H](c2ccc(C(=O)O)cc2)C1", "bioavailability [%]": 46}

Param item = COc1cc(C)c2[nH]ccc2c1CN1CC[C@H](OC)C[C@H]1c1ccc(C(=O)O)cc1 ; retrieve measured bioavailability.
37

* * *

Experiment: Apparent permeability across apical to basolateral side in human Caco2 cells
Assay type: ADME, cell-based
Settings: Caco-2
Recorded Metric: Papp A→B (×10⁻⁶ cm/s)
Unit ×10⁻⁶ cm/s implied. Number only.

Look at this molecule and give its reported Papp A→B. Cc1cc(C)c2[nH]ccc2c1CN1CCCCC1c1ccc(C(=O)O)cc1 (stereo unspecified)
16.6
